Listing of entries alongside the reported protein stability index.
B1: TMEM120A (parent)
chain: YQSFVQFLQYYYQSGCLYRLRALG

- Variants of: B1
- testDetails: protein stability index of a GFP-peptide fusion (GPS, HEK-293T) (PSI 1-6); higher = more stable;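 note: lentivirally expressed fusions sorted by FACS into six bins by GFP to DsRed ratio, PSI derived from sequencing read proportions per bin multiplied by bin number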
- measurementParameters: c terminus: a fixed tail appended
Keep the answer to the number alone.

Please review the entries below; each comes with its answer.
>  <residueChange>
Y10Q

>  <protein stability index>
2.35

$$$$
>  <residueChange>
L20V

>  <protein stability index>
3.1

$$$$
>  <residueChange>
A22S

>  <protein stability index>
2.32

$$$$
>  <residueChange>
L8N

>  <protein stability index>
2.08

$$$$
>  <residueChange>
S3P

>  <protein stability index>
3.24

$$$$

*Q* Requested read-out: protein stability index. Entry: `C16T`
*A* 2.12

*Q* Fill in the blank: the reported protein stability index of `R19E` is ____.
*A* 2.1

*Q* Quick one: protein stability index for `A22T` ?
*A* 3.45

*Q* I'd like to know its protein stability index. The variant in question is `C16K`
*A* 1.72

*Q* Requested read-out: protein stability index. Entry: `L20M`
*A* 2.47
